- tested_system: Peroxisome proliferator-activated receptor gamma (Homo sapiens)
- protocol: Partial agonist activity at GAL4 DBD-fused PPARgamma LBD (unknown origin) expressed in pG5 luc and pBIND transfected HEK293T cells assessed as transcriptional activation incubated for 12 hrs by fluorescence based luciferase assay
Here the recorded EC50 is given for each entry.

>  <compound>
CC1=C(CC(=O)O)c2cc(F)ccc2/C1=C\c1ccc(Oc2ccccc2)cc1

>  <EC50>
> 50 µM

$$$$
>  <compound>
CC1=C(CC(=O)O)c2cc(F)ccc2/C1=C\c1ccc([S+](C)[O-])cc1 (stereo not drawn)

>  <EC50>
22.7 µM

$$$$
>  <compound>
CC1=C(CC(=O)O)c2cc(F)ccc2/C1=C\c1ccc(OCc2ccccc2)cc1

>  <EC50>
> 50 µM

$$$$
>  <compound>
CC1=C(CC(=O)O)c2cc(F)ccc2/C1=C\c1ccc(C(C)C)cc1

>  <EC50>
> 50 µM

$$$$
>  <compound>
CC1=C(CC(=O)O)c2cc(F)ccc2/C1=C\c1ccc(F)cc1

>  <EC50>
11.7 µM

$$$$

State its EC50: COc1cccc(/C=C2/C(C)=C(CC(=O)O)c3cc(F)ccc32)c1
5.3 µM

State its EC50: CC1=C(CC(=O)O)c2ccccc2/C1=C\c1cccc(C)c1
> 50 µM

State its EC50: CC1=C(CC(=O)O)c2ccccc2/C1=C/c1cccc(C)c1
> 50 µM

---

Here the recorded pKd is given for each entry.
- tested_system: Peroxisome proliferator-activated receptor gamma (Homo sapiens, UniProt P37231)
- Sequence (P37231 whole entry, the tested form may be a part): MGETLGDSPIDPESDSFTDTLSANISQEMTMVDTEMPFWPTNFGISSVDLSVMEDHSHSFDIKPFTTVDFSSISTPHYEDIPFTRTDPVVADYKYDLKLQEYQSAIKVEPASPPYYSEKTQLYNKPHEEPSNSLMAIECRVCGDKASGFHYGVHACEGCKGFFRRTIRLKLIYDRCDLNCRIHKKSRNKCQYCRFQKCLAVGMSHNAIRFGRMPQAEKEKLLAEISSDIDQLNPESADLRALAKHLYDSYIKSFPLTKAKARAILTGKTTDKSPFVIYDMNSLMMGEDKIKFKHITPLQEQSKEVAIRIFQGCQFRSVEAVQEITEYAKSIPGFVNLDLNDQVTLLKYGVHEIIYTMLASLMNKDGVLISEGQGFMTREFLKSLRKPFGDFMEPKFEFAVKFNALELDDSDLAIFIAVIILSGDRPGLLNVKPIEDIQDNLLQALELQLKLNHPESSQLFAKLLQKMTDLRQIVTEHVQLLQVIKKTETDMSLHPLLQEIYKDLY
- protocol: Binding affinity to GAL4-DBD-fused PPARgamma ligand binding domain (unknown origin) expressed in HEK293T cells by spectra-fluorophotometry analysis
pKd: −log10 of the molar value.

// worked examples, pKd included
>  <molecule>
CC1=C(CC(=O)O)c2cc(F)ccc2/C1=C\c1ccc(C(C)C)cc1

>  <assay_value>
< 4.00

$$$$
>  <molecule>
CC1=C(CC(=O)O)c2ccccc2/C1=C/c1cccc(C)c1

>  <assay_value>
< 4.00

$$$$

Let us examine a further case.
Please report pKd with Peroxisome proliferator-activated receptor gamma (Homo sapiens, UniProt P37231) for item CC1=C(CC(=O)O)c2cc(F)ccc2/C1=C\c1ccc(F)cc1 .
5.18

---

- tested_system: Peroxisome proliferator-activated receptor gamma (Homo sapiens)
- protocol: Binding affinity to GAL4-DBD-fused PPARgamma ligand binding domain (unknown origin) expressed in HEK293T cells by spectra-fluorophotometry analysis
pKd: −log10 of the molar value.
readout_type: pKd

// worked examples, pKd included
>  <compound>
CC1=C(CC(=O)O)c2cc(F)ccc2/C1=C\c1ccc(OCc2ccccc2)cc1

>  <pKd>
< 4.00

$$$$
>  <compound>
CC1=C(CC(=O)O)c2cc(F)ccc2/C1=C\c1ccc([S+](C)[O-])cc1 (stereo not given)

>  <pKd>
< 4.00

$$$$
>  <compound>
CC1=C(CC(=O)O)c2ccccc2/C1=C\c1cccc(C)c1

>  <pKd>
< 4.00

$$$$
>  <compound>
CC1=C(CC(=O)O)c2cc(F)ccc2/C1=C\c1ccc(Oc2ccccc2)cc1

>  <pKd>
< 4.00

$$$$

Let us examine a further case.
Please report pKd with Peroxisome proliferator-activated receptor gamma (Homo sapiens) for item COc1cccc(/C=C2/C(C)=C(CC(=O)O)c3cc(F)ccc32)c1 .
5.61

---

- tested_system: Prostaglandin G/H synthase 2 (Homo sapiens, UniProt P35354)
- Sequence (P35354 whole entry): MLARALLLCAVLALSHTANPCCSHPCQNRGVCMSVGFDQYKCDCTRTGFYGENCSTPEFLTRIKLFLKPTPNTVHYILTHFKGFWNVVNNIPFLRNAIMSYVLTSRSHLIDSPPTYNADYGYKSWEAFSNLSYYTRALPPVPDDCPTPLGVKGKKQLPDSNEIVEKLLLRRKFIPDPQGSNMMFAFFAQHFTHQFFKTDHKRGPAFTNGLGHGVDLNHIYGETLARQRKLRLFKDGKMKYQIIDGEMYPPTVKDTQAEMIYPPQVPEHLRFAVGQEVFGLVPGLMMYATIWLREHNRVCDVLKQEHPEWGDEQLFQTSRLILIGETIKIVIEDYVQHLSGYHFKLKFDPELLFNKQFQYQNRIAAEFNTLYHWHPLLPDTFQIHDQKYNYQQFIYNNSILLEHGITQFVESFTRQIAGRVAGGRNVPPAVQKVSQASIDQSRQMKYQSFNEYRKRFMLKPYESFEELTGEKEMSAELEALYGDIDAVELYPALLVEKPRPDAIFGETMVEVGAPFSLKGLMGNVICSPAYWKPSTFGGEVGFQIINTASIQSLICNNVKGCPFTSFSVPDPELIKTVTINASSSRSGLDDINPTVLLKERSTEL
readout_type: IC50 (µM)
Express your answer in µM, writing the number without its unit.

Please report IC50 with Prostaglandin G/H synthase 2 (Homo sapiens, UniProt P35354) for item CC1=C(CC(=O)O)c2cc(F)ccc2/C1=C\c1cccc(OCc2ccccc2)c1 .
286
